Tested on: OVCAR-8 ovarian
Experiment Summary: NCI tumour cell line growth inhibition, 48 h
Recorded Metric: TGI

>  <Compound>
C[N+](C)(C)C1CC([N+](C)(C)C)C2c3ccccc3C21 (configuration not stated)

>  <Assayed System>
OVCAR-8 ovarian

>  <TGI>
> 100 µM

$$$$

Working through the 8 compounds below one at a time, give TGI for each.
1. CCOP(=O)(Nc1ccc(-c2ccc(N)cc2)cc1)OCC
2. CCCCC(OC(=O)c1ccc(N)cc1)C(=O)Nc1nc(CC(=O)OCC)cs1 (configuration not stated)
3. COc1ccc(C[C@]23CCC(=O)N2CCc2cc(OC)c(O)cc23)cc1O
4. O=c1c(C(c2ccc([N+](=O)[O-])cc2)c2c(O)c3ccccc3n(-c3ccccc3)c2=O)c(O)c2ccccc2n1-c1ccccc1
5. O=c1cc(-c2ccccc2)oc2c1ccc1ccccc12
6. Cc1cc(=O)oc2cc3oc(N(C)c4ccccc4)nc(=O)c3cc12
7. COCN1C(=N)C(C(=O)OC(C)(C)C)=C2C=C(O)C=CC21C (configuration not stated)
8. Brc1ccc(C=NC23CC4CC(CC(C4)C2)C3)cc1

[reply]
["> 100 µM", "> 100 µM", "78.6 µM", "73.9 µM", "> 100 µM", "> 100 µM", "55.7 µM", "> 100 µM"]

Working through the 4 compounds below one at a time, give TGI for each.
1. Cc1ccc2[nH]c(O)c(N=Nc3ccccc3[N+](=O)[O-])c2c1
2. CCc1[nH]nc(C(N)=O)c1N=NN(C)C
3. O=C(O[C@H]1[C@@H]2C=CO[C@@H](OC3OC(CO)C(O)C(O)C3O)[C@@H]2[C@@]2(CO)O[C@@H]12)c1ccc(O)c(O)c1 (some centres not stated)
4. CCCS(=O)(=O)Nc1cccc(Nc2ncnc3cc(NC(=O)CCl)ccc23)c1Cl

[reply]
["> 33.9 µM", "> 100 µM", "> 100 µM", "14.1 µM"]

Working through the 7 compounds below one at a time, give TGI for each.
1. COc1ccc(-c2oc3c(OC)c(OC)c(OC)c(O)c3c(=O)c2OC)cc1O
2. [Co].[O-]c1cccnc1C=Nc1ccccc1.[OH3+]
3. CNS(=O)(=O)NNS(=O)(=O)c1ccc(F)cc1
4. CN=C1CN=C(OP(=O)(N2CCOCC2)N2CCOCC2)c2cc(Cl)ccc2N1
5. COc1ccc2c(=O)c3c([nH]c2c1)OCC3=O
6. Nc1ncnc2c1ncn2[C@@H]1O[C@H](COP(=O)(O)OP(=O)(O)OC[C@H]2O[C@@H](OCCCO)[C@H](O)[C@@H]2O)[C@@H](O)[C@H]1O
7. COn1oc(=O)c2ccccc21

[reply]
1. > 100 µM
2. > 100 µM
3. > 100 µM
4. > 100 µM
5. > 100 µM
6. > 100 µM
7. > 100 µM

Working through the 2 compounds below one at a time, give TGI for each.
1. CC(C)=Cc1cccc2[nH]c(O)c(N=Nc3ccc(S(N)(=O)=O)cc3)c12
2. O=C(C=Nc1ccccc1S)c1ccco1

[reply]
1: > 25 µM; 2: 27.3 µM
